- Test system: 648629-189-R-J1-PDC complex spheroids viability
- Experimental protocol: Anticancer human tumor 648629-189-R-J1-PDC patient-derived bladder carcinoma cell line growth inhibition [CLK]
- Stated conditions: curve of first compound; second compound 0.316 µM
- Excerpt: A high-throughput screen of multi-cell type tumor spheroids was designed to identify active combinations of […] and targeted small molecules. Complex spheroids include a stromal component modeled by human endothelial cells (HUVEC) and fibroblasts modeled by human mesenchymal stem cells (MSCs). […] Compounds. […] If the clinical Cmax for an agent had not been determined, the highest concentration tested was 10 microM. […]
# IC50 per record follows

Compound | IC50
COC1C=CCC(C)C(C)S(=O)(=O)NC(=O)c2ccc3c(c2)N(CC2CCC21)CC1(CCCc2cc(Cl)ccc21)CO3 (stereo unspecified) + CN1CCN(c2cc(C(=O)Nc3cc4cc(-c5cnn(C)c5)ccc4cn3)ccn2)CC1 | < 31.6 nM
Nc1ccccc1NC(=O)c1ccc(CNC(=O)OCc2cccnc2)cc1 + CNC(=O)c1ccc(Nc2nc(OC3CCCC3)c3c(-c4ccc5nc(C)oc5c4)c[nH]c3n2)c(OC)c1 | < 31.6 nM
CC(Nc1ccc2c(c1)OCCn1cc(N3C(=O)OCC3C(F)F)nc1-2)C(N)=O (stereo unspecified) + CNC(=O)c1ccc(Nc2nc(OC3CCCC3)c3c(-c4ccc5nc(C)oc5c4)c[nH]c3n2)c(OC)c1 | < 31.6 nM
O=c1[nH]cc(F)c(=O)[nH]1 + CNC(=O)c1ccc(Nc2nc(OC3CCCC3)c3c(-c4ccc5nc(C)oc5c4)c[nH]c3n2)c(OC)c1 | < 31.6 nM
CC(CO)NC(=O)c1cc(-c2ccc(Cl)cc2)nn(-c2cnn(C)c2)c1=O (stereo unspecified) + CN1CCN(c2cc(C(=O)Nc3cc4cc(-c5cnn(C)c5)ccc4cn3)ccn2)CC1 | < 31.6 nM
COc1cccc2c1C(=O)c1c(O)c3c(c(O)c1C2=O)CC(O)(C(=O)CO)CC3OC1CC(N)C(O)C(C)O1 (stereo unspecified) + CNC(=O)c1ccc(Nc2nc(OC3CCCC3)c3c(-c4ccc5nc(C)oc5c4)c[nH]c3n2)c(OC)c1 | < 31.6 nM
CC1(C)CCC(CN2CCN(c3ccc(C(=O)NS(=O)(=O)c4ccc(NCC5CCOCC5)c([N+](=O)[O-])c4)c(Oc4cnc5[nH]ccc5c4)c3)CC2)=C(c2ccc(Cl)cc2)C1 + CNC(=O)c1ccc(Nc2nc(OC3CCCC3)c3c(-c4ccc5nc(C)oc5c4)c[nH]c3n2)c(OC)c1 | < 31.6 nM
CCCS(=O)(=O)Nc1ccc(F)c(C(=O)c2c[nH]c3ncc(-c4ccc(Cl)cc4)cc23)c1F + CNC(=O)c1ccc(Nc2nc(OC3CCCC3)c3c(-c4ccc5nc(C)oc5c4)c[nH]c3n2)c(OC)c1 | < 31.6 nM
CCc1c2c(nc3ccc(O)cc13)-c1cc3c(c(=O)n1C2)COC(=O)[C@]3(O)CC + CN1CCN(c2cc(C(=O)Nc3cc4cc(-c5cnn(C)c5)ccc4cn3)ccn2)CC1 | < 3.16 nM
CC1(C)CCC(CN2CCN(c3ccc(C(=O)NS(=O)(=O)c4ccc(NCC5CCOCC5)c([N+](=O)[O-])c4)c(Oc4cnc5[nH]ccc5c4)c3)CC2)=C(c2ccc(Cl)cc2)C1 + CN1CCN(c2cc(C(=O)Nc3cc4cc(-c5cnn(C)c5)ccc4cn3)ccn2)CC1 | < 31.6 nM
O=c1[nH]cc(F)c(=O)[nH]1 + CN1CCN(c2cc(C(=O)Nc3cc4cc(-c5cnn(C)c5)ccc4cn3)ccn2)CC1 | < 31.6 nM

* * *

- Test system: 648629-189-R-J1-PDC complex spheroids viability
- Experimental protocol: Anticancer human tumor 648629-189-R-J1-PDC cell line growth inhibition [CLK];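 on viability, T/C: drug exposure lasted seven days before viability readout; 100% = DMSO vehicle control wells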
- Stated conditions: second compound 3.16 µM; first compound 0.1 µM; stronger effect = lower value

Compound | viability, T/C (%)
O=C(c1cc(Cc2n[nH]c(=O)c3ccccc23)ccc1F)N1CCN(C(=O)C2CC2)CC1 + CN1CCN(c2cc(C(=O)Nc3cc4cc(-c5cnn(C)c5)ccc4cn3)ccn2)CC1 | 0.44
CC(Nc1ccc2c(c1)OCCn1cc(N3C(=O)OCC3C(F)F)nc1-2)C(N)=O (centres undefined) + CN1CCN(c2cc(C(=O)Nc3cc4cc(-c5cnn(C)c5)ccc4cn3)ccn2)CC1 | 0.14
CCc1c2c(nc3ccc(O)cc13)-c1cc3c(c(=O)n1C2)COC(=O)[C@]3(O)CC + CNC(=O)c1ccc(Nc2nc(OC3CCCC3)c3c(-c4ccc5nc(C)oc5c4)c[nH]c3n2)c(OC)c1 | 6.24
Cn1ncnc1[C@H]1c2n[nH]c(=O)c3cc(F)cc(c23)N[C@@H]1c1ccc(F)cc1 + CNC(=O)c1ccc(Nc2nc(OC3CCCC3)c3c(-c4ccc5nc(C)oc5c4)c[nH]c3n2)c(OC)c1 | 16.6

* * *

- Test system: 648629-189-R-J1-PDC complex spheroids viability
- Experimental protocol: Anticancer human tumor 648629-189-R-J1-PDC cell line growth inhibition [CLK]; active means viability on the fitted dose curve at most 10% of control; inactive means the rest
- Stated conditions: second compound 0.0316 µM; first compound 10 µM
Possible outcomes: y (active), n (inactive)

Compound | Target of assay | Label class
C=CC(=O)N1CCN(c2nc(=O)n(-c3c(C)ccnc3C(C)C)c3nc(-c4c(O)cccc4F)c(F)cc23)C(C)C1 (stereo not given) + CN1CCN(c2cc(C(=O)Nc3cc4cc(-c5cnn(C)c5)ccc4cn3)ccn2)CC1 | 648629-189-R-J1-PDC complex spheroids viability | n
COc1ccc([C@@H](O)c2cc(-c3ncnc4cc(N5CCOCC5)ccc34)c(F)cc2Cl)nn1 + CNC(=O)c1ccc(Nc2nc(OC3CCCC3)c3c(-c4ccc5nc(C)oc5c4)c[nH]c3n2)c(OC)c1 | 648629-189-R-J1-PDC complex spheroids viability | n
CC1COCCN1c1cc(C2(S(C)(=N)=O)CC2)nc(-c2ccnc3[nH]ccc23)n1 (stereo not given) + CN1CCN(c2cc(C(=O)Nc3cc4cc(-c5cnn(C)c5)ccc4cn3)ccn2)CC1 | 648629-189-R-J1-PDC complex spheroids viability | n
CCCS(=O)(=O)Nc1ccc(F)c(C(=O)c2c[nH]c3ncc(-c4ccc(Cl)cc4)cc23)c1F + CNC(=O)c1ccc(Nc2nc(OC3CCCC3)c3c(-c4ccc5nc(C)oc5c4)c[nH]c3n2)c(OC)c1 | 648629-189-R-J1-PDC complex spheroids viability | n
C=CC(=O)N1CCN(c2nc(=O)n(-c3c(C)ccnc3C(C)C)c3nc(-c4c(O)cccc4F)c(F)cc23)C(C)C1 (stereo not given) + CNC(=O)c1ccc(Nc2nc(OC3CCCC3)c3c(-c4ccc5nc(C)oc5c4)c[nH]c3n2)c(OC)c1 | 648629-189-R-J1-PDC complex spheroids viability | n
COc1cccc2c1C(=O)c1c(O)c3c(c(O)c1C2=O)CC(O)(C(=O)CO)CC3OC1CC(N)C(O)C(C)O1 (stereo not given) + CNC(=O)c1ccc(Nc2nc(OC3CCCC3)c3c(-c4ccc5nc(C)oc5c4)c[nH]c3n2)c(OC)c1 | 648629-189-R-J1-PDC complex spheroids viability | y
CC(=O)O[C@H]1C(=O)[C@@]2(C)[C@H]([C@H](OC(=O)c3ccccc3)[C@]3(O)C[C@H](OC(=O)[C@H](O)[C@@H](NC(=O)c4ccccc4)c4ccccc4)C(C)=C1C3(C)C)[C@]1(OC(C)=O)CO[C@@H]1C[C@@H]2O + CN1CCN(c2cc(C(=O)Nc3cc4cc(-c5cnn(C)c5)ccc4cn3)ccn2)CC1 | 648629-189-R-J1-PDC complex spheroids viability | y
Nc1ccccc1NC(=O)c1ccc(CNC(=O)OCc2cccnc2)cc1 + CNC(=O)c1ccc(Nc2nc(OC3CCCC3)c3c(-c4ccc5nc(C)oc5c4)c[nH]c3n2)c(OC)c1 | 648629-189-R-J1-PDC complex spheroids viability | y
CC(Nc1ccc2c(c1)OCCn1cc(N3C(=O)OCC3C(F)F)nc1-2)C(N)=O (stereo not given) + CNC(=O)c1ccc(Nc2nc(OC3CCCC3)c3c(-c4ccc5nc(C)oc5c4)c[nH]c3n2)c(OC)c1 | 648629-189-R-J1-PDC complex spheroids viability | n
COc1ccc([C@@H](O)c2cc(-c3ncnc4cc(N5CCOCC5)ccc34)c(F)cc2Cl)nn1 + CN1CCN(c2cc(C(=O)Nc3cc4cc(-c5cnn(C)c5)ccc4cn3)ccn2)CC1 | 648629-189-R-J1-PDC complex spheroids viability | n
O=c1[nH]cc(F)c(=O)[nH]1 + CNC(=O)c1ccc(Nc2nc(OC3CCCC3)c3c(-c4ccc5nc(C)oc5c4)c[nH]c3n2)c(OC)c1 | 648629-189-R-J1-PDC complex spheroids viability | n
O=C(c1cc(Cc2n[nH]c(=O)c3ccccc23)ccc1F)N1CCN(C(=O)C2CC2)CC1 + CNC(=O)c1ccc(Nc2nc(OC3CCCC3)c3c(-c4ccc5nc(C)oc5c4)c[nH]c3n2)c(OC)c1 | 648629-189-R-J1-PDC complex spheroids viability | n
CC(Nc1ccc2c(c1)OCCn1cc(N3C(=O)OCC3C(F)F)nc1-2)C(N)=O (stereo not given) + CN1CCN(c2cc(C(=O)Nc3cc4cc(-c5cnn(C)c5)ccc4cn3)ccn2)CC1 | 648629-189-R-J1-PDC complex spheroids viability | n
C=C(F)C(=O)N1CCN(c2nc(OCC3CCCN3C)nc3c2CCN(c2cccc4cccc(Cl)c24)C3)CC1CC#N (stereo not given) + CN1CCN(c2cc(C(=O)Nc3cc4cc(-c5cnn(C)c5)ccc4cn3)ccn2)CC1 | 648629-189-R-J1-PDC complex spheroids viability | y
Nc1ccccc1NC(=O)c1ccc(CNC(=O)OCc2cccnc2)cc1 + CN1CCN(c2cc(C(=O)Nc3cc4cc(-c5cnn(C)c5)ccc4cn3)ccn2)CC1 | 648629-189-R-J1-PDC complex spheroids viability | y
C#Cc1c(F)ccc2cc(O)cc(-c3ncc4c(N5CC6CCC(C5)N6)nc(OCC56CCCN5CC(F)C6)nc4c3F)c12 (stereo not given) + CN1CCN(c2cc(C(=O)Nc3cc4cc(-c5cnn(C)c5)ccc4cn3)ccn2)CC1 | 648629-189-R-J1-PDC complex spheroids viability | n
C#Cc1c(F)ccc2cc(O)cc(-c3ncc4c(N5CC6CCC(C5)N6)nc(OCC56CCCN5CC(F)C6)nc4c3F)c12 (stereo not given) + CNC(=O)c1ccc(Nc2nc(OC3CCCC3)c3c(-c4ccc5nc(C)oc5c4)c[nH]c3n2)c(OC)c1 | 648629-189-R-J1-PDC complex spheroids viability | n
CC(CO)NC(=O)c1cc(-c2ccc(Cl)cc2)nn(-c2cnn(C)c2)c1=O (stereo not given) + CN1CCN(c2cc(C(=O)Nc3cc4cc(-c5cnn(C)c5)ccc4cn3)ccn2)CC1 | 648629-189-R-J1-PDC complex spheroids viability | n
CC(CO)NC(=O)c1cc(-c2ccc(Cl)cc2)nn(-c2cnn(C)c2)c1=O (stereo not given) + CNC(=O)c1ccc(Nc2nc(OC3CCCC3)c3c(-c4ccc5nc(C)oc5c4)c[nH]c3n2)c(OC)c1 | 648629-189-R-J1-PDC complex spheroids viability | n
CCCS(=O)(=O)Nc1ccc(F)c(C(=O)c2c[nH]c3ncc(-c4ccc(Cl)cc4)cc23)c1F + CN1CCN(c2cc(C(=O)Nc3cc4cc(-c5cnn(C)c5)ccc4cn3)ccn2)CC1 | 648629-189-R-J1-PDC complex spheroids viability | n
